Condition summary: in 1,4-dioxane, 298.15 K
Observable: solubility (mole fraction)

[a] O=C1c2ccccc2C(=O)c2c(Cl)cccc21
[b] O=C(O)c1cccc(Cl)c1C(=O)c1ccccc1
// query Which numeric solubility (mole fraction) is bigger, that of a or that of b ? Pick one; state its label.
// result b
(b: 0.0309, a: 0.00607)

----------
Condition summary: in 1,4-dioxane, 308.15 K
Observable: solubility (mole fraction)

[P] O=C1c2ccccc2C(=O)c2c(Cl)cccc21
[Q] O=C(O)c1cccc(Cl)c1C(=O)c1ccccc1
// query Which numeric solubility (mole fraction) is bigger, that of P or that of Q ? Pick one; state its label.
// result Q

----------
Condition summary: in toluene, 303.15 K
Observable: solubility (mole fraction)
Enter the number alone.

Entry under test: O=C1c2ccccc2C(=O)c2c(Cl)cccc21 . Its solubility (mole fraction) was 0.016

----------
Condition summary: in acetone, 273.15 K
Observable: solubility (mole fraction)

[A] O=C1c2ccccc2C(=O)c2c(Cl)cccc21
[B] O=C(O)c1cccc(Cl)c1C(=O)c1ccccc1
// query Kindly identify the item with the lower solubility (mole fraction) figure among these two: A and B Pick one; state its label.
// result B

----------
Condition summary: in acetone, 278.15 K
Observable: solubility (mole fraction)

[1] O=C1c2ccccc2C(=O)c2c(Cl)cccc21
[2] O=C(O)c1cccc(Cl)c1C(=O)c1ccccc1
// query Kindly identify the item with the lower solubility (mole fraction) figure among these two: 1 and 2 Pick one; state its label.
// result 2
(2: 0.00183, 1: 0.00308)

----------
Condition summary: in acetone, 293.15 K
Observable: solubility (mole fraction)

[I] O=C1c2ccccc2C(=O)c2c(Cl)cccc21
[II] O=C(O)c1cccc(Cl)c1C(=O)c1ccccc1
// query Which numeric solubility (mole fraction) is bigger, that of I or that of II ? Pick one; state its label.
// result I
(I: 0.00448, II: 0.00258)

----------
Condition summary: in ethyl acetate, 288.15 K
Observable: solubility (mole fraction)

[A] O=C1c2ccccc2C(=O)c2c(Cl)cccc21
[B] O=C(O)c1cccc(Cl)c1C(=O)c1ccccc1
// query Kindly identify the item with the lower solubility (mole fraction) figure among these two: A and B Pick one; state its label.
// result A
(A: 0.00531, B: 0.00811)

----------
Condition summary: in ethyl acetate, 283.15 K
Observable: solubility (mole fraction)

[P] O=C(O)c1cccc(Cl)c1C(=O)c1ccccc1
[Q] O=C1c2ccccc2C(=O)c2c(Cl)cccc21
// query Which numeric solubility (mole fraction) is bigger, that of P or that of Q ? Pick one; state its label.
// result P
(P: 0.00692, Q: 0.00459)

----------
Condition summary: in toluene, 278.15 K
Observable: solubility (mole fraction)
Enter the number alone.

Entry under test: O=C1c2ccccc2C(=O)c2c(Cl)cccc21 . Its solubility (mole fraction) was 0.01

----------
Condition summary: in toluene, 273.15 K
Observable: solubility (mole fraction)
Enter the number alone.

Entry under test: O=C1c2ccccc2C(=O)c2c(Cl)cccc21 . Its solubility (mole fraction) was 0.00918

----------
Condition summary: in ethyl acetate, 278.15 K
Observable: solubility (mole fraction)

[P] O=C(O)c1cccc(Cl)c1C(=O)c1ccccc1
[Q] O=C1c2ccccc2C(=O)c2c(Cl)cccc21
// query Which numeric solubility (mole fraction) is bigger, that of P or that of Q ? Pick one; state its label.
// result P
(P: 0.00599, Q: 0.00387)
